Test system: HS 578T breast
Assay: NCI-60 one-dose screen, 48 h (100 = growth as untreated, 0 = no growth, -100 = all killed)
Conditions: 10 µM unless noted
Method: Growth inhibition of the HS 578T human tumor cell line is measured as a screen for anti-cancer activity. Cells are grown in 96 well plates and exposed to the test compound for 48 hours. Compounds are tested at a single concentration, which is 10^-5 M for most compounds. The reported endpoint is percent growth (GI% or GIPRCNT), where numbers from 0 - 100% represent growth inhibition, and numbers from -100% - 0 represent cell death. For example, a value of 40 represents 60% growth inhibition. […]
The panel holds about 83,000 compounds, 20% with a hit somewhere; the sample as a whole holds those more often.
Could you mark each record TRUE if its growth falls strictly under 20%, and FALSE if it equals or exceeds it?

Examples with answers:
[
  {
    "COMPOUND": "Cc1nc(Nc2ccccn2)sc1C1=NNC(c2ccccc2F)C1 (stereo not given)",
    "CATEGORY LABEL": "FALSE"
  },
  {
    "COMPOUND": "Cn1cc(Nc2ncnc(-c3ccc(N4CCCC4)c(C#N)c3)n2)cn1",
    "CATEGORY LABEL": "FALSE"
  },
  {
    "COMPOUND": "S=C(Nc1ccc(OCc2nc3ccc(Cl)cc3[nH]2)cc1)NC1CCCCC1",
    "CATEGORY LABEL": "TRUE"
  }
]

Would you kindly verify if growth of CN1C(=O)/C(=C/c2ccco2)S/C1=N/c1nccs1 is strictly less than 20%?
FALSE

Would you kindly verify if growth of Cc1ccc(Cl)cc1NC(=O)N/C(N)=N/c1nc2ccccc2s1 is strictly less than 20%?
TRUE

Would you kindly verify if growth of O=C(OCCOCCO)N(c1cccc(Br)c1)c1nc(SCCN2CCOCC2)nc2c1cnn2CC(Cl)c1ccc(Br)cc1 (stereo not given) is strictly less than 20%?
TRUE

Would you kindly verify if growth of Cc1cccc(/C=C/c2ccc(NC(=S)NCCCCN(C)C)cc2)c1 is strictly less than 20%?
TRUE

Would you kindly verify if growth of COc1ccccc1NC(=O)N/N=C/c1c[nH]c2ccccc12 is strictly less than 20%?
FALSE

Would you kindly verify if growth of CN1CCN(c2ccc3c4c(cccc24)C(=O)N(c2cccc(-c4nn(-c5ccccc5)cc4-c4nc5ccccc5s4)c2)C3=O)CC1 is strictly less than 20%?
FALSE

Would you kindly verify if growth of CC1=C(C(=O)OCc2ccccc2)C(c2ccc(N(C)C)cc2)n2c(nc3ccccc32)N1 (stereo not given) is strictly less than 20%?
FALSE

* * *

Test system: HS 578T breast
Assay: NCI-60 one-dose screen, 48 h
Conditions: 10 µM unless noted
About 83,000 compounds went through this panel and 20% of them were active in at least one assay; those are over-represented in the sample as a whole. Activity calls are given as the source filed them. The calls were made as follows: active = growth percent below 10; inactive = the rest.
Log the outcome using a class from 1 (active), 0 (inactive)

Examples with answers:
[
  {
    "MOLECULE": "CC1=C(C(=O)Nc2ccccc2)C(c2cccc(Cl)c2Cl)n2c(nc3ccccc32)N1 (stereo not drawn)",
    "CATEGORY LABEL": 0
  },
  {
    "MOLECULE": "COc1cc(C=O)ccc1OC(=O)c1cc(-c2ccc(C)cc2)n(-c2ccc(S(C)(=O)=O)cc2)n1",
    "CATEGORY LABEL": 0
  },
  {
    "MOLECULE": "CC(C)C[C@H](NC(=O)CNC(=O)C[C@H]1O[C@@H]2OC3(C)CC[C@H]4[C@H](C)CC[C@@H]([C@H]1C)[C@@]24O3)B(O)O",
    "CATEGORY LABEL": 1
  },
  {
    "MOLECULE": "COc1ccc(NC(=O)NN2C(=O)c3ccccc3N(C)C2c2ccc(OC)cc2)cc1 (stereo not drawn)",
    "CATEGORY LABEL": 0
  },
  {
    "MOLECULE": "COC(=O)c1c(C(=O)OC)c2ccc3c4ccccc4ccc3n2c1C(=O)OC",
    "CATEGORY LABEL": 0
  }
]

Dear colleague, could you share the recorded outcome for Fc1ccc(N2CC(Cn3c(C(F)(F)F)cc4c(Cl)ncnc43)C2)c(F)c1 when you have a moment?
0

Dear colleague, could you share the recorded outcome for CCCCN1C(=O)/C(=C\C(=O)c2cc3ccccc3oc2=O)c2ccccc21 when you have a moment?
0

Dear colleague, could you share the recorded outcome for O=C1CCC(N2C(=O)c3cccc(NCCOCCOCCOCCC(=O)NCCCC(=O)NC(c4ccc5c(c4)OCO5)c4cc(Cl)c5cccnc5c4O)c3C2=O)C(=O)C1 (stereo not drawn) when you have a moment?
0

* * *

Tested on: CCRF-CEM leukemia
Assay: NCI-60 one-dose screen, 48 h (100 = growth as untreated, 0 = no growth, -100 = all killed)
Details: 10 µM unless noted
About 83,000 compounds went through this panel and 20% of them were active in at least one assay; those are over-represented in the sample as a whole.
MEASURED PARAMETER: growth (%)
Field: numeric (%). Do not append units.

[
  {
    "MOLECULE": "Fc1ccccc1CNc1nc(SCCN2CCOCC2)nc2c1cnn2CC(Cl)c1ccc(Br)cc1 (centres undefined)",
    "growth (%)": 22.4
  }
]

Data request, read-out growth, for O=C1NC(=S)/C(=C/c2cn(-c3ccccc3)nc2-c2ccccc2)S1
30.9

Data request, read-out growth, for C/C(=N/O)c1ccc(NC(=O)CSc2nnc(-c3ccc4nc(-c5ccc(Cl)cc5)[nH]c4c3)o2)cc1
32.5

Data request, read-out growth, for Cc1ccc2nc(COc3ccc(C(=O)NNC(=O)Nc4ccc(Cl)c(C(F)(F)F)c4)cc3)[nH]c2c1
41.6

Data request, read-out growth, for O=C(Nc1ccc(-c2ccc3c(c2)NC(=O)/C3=C\c2ccc[nH]2)cc1)Nc1ccc(Cl)c(Cl)c1
33.1

Data request, read-out growth, for COc1cccc(/C=C/c2nc3ccccc3c(=O)n2CC(=O)Nc2ccccc2)c1
90.1

Data request, read-out growth, for O=C(Nc1ccc(Br)cc1)Nc1ccc(-c2ccc3c(c2)NC(=O)/C3=C\c2ccc[nH]2)cc1
25.3

Data request, read-out growth, for O=C(CSc1nnc(-c2ccc(-c3nc4ccc(Cl)cc4[nH]3)cc2)o1)Nc1ccccc1
41.5

Data request, read-out growth, for COC(=O)c1c(C(=O)OC)c2c3ccccc3c3ccccc3n2c1C(=O)C(C)(C)C
65.6

* * *

System: NCI-H522 lung
Experiment: NCI-60 one-dose screen, 48 h (100 = growth as untreated, 0 = no growth, -100 = all killed)
Conditions: 10 µM unless noted
Compounds without any hit were thinned out: in the full panel of roughly 83,000, 20% have a hit. The source made the active and inactive calls. How the source made its calls: active means growth percent below 10; inactive means the rest.
The molecules listed here are annotated with their growth.

Example cases with answers are listed next.
[
  {
    "MOLECULE": "CCCCCCCCc1cccc(CC(=O)Nc2ccc(C)cc2C(=O)O)c1",
    "growth": "38.7% [25 µM] (inactive)"
  },
  {
    "MOLECULE": "COc1ccc2oc(=O)c(-c3csc(N/N=C(\\C)c4cc(OC)c(OC)c(OC)c4)n3)cc2c1",
    "growth": "85.8% (inactive)"
  },
  {
    "MOLECULE": "Nc1cc(-c2c[nH]c3ccc(Br)cc23)nc2cc(-c3c[nH]c4ccccc34)nn12",
    "growth": "-77% (active)"
  }
]

Data request, read-out growth, for COc1cc(CNC(=O)C[C@H](C)CCC=C(C)C)ccc1OCc1cn(-c2ccc(Br)cc2)nn1
41.6% (inactive)

Data request, read-out growth, for O=C(N/N=C/c1ccc(-c2cccc([N+](=O)[O-])c2)s1)c1[nH]c2ccc(Br)cc2c1-c1ccccc1
66.5% (inactive)

* * *

Test system: NCI-H23 lung
Assay: NCI-60 one-dose screen, 48 h
Details: 10 µM unless noted
Compounds without any hit were thinned out: in the full panel of roughly 83,000, 20% have a hit. Activity calls are given as the source filed them. Rule for the calls: active = growth percent below 10; inactive = the rest.
Log the outcome using a class from active, inactive

Examples with answers:
[
  {
    "MOLECULE": "COc1sc(/C=N/NC(=O)c2[nH]c3ccc(Br)cc3c2-c2ccccc2)cc1Cl",
    "CATEGORY LABEL": "active"
  },
  {
    "MOLECULE": "Cn1cc(-c2cc3nc(-c4cn(C)c5ncc(Br)cc45)cc(N)n3n2)c2cc(F)ccc21",
    "CATEGORY LABEL": "inactive"
  },
  {
    "MOLECULE": "COc1ccc(/C=C/c2nc3ccccc3c(=O)n2CC(=O)Nc2ccccc2)cc1",
    "CATEGORY LABEL": "inactive"
  },
  {
    "MOLECULE": "C[C@@H]1CN(c2ccc3ncc(C#Cc4cncc(C(=O)Nc5ccc(CN6CCN(C)CC6)c(C(F)(F)F)c5)c4)n3n2)C[C@@H](C)O1",
    "CATEGORY LABEL": "active"
  },
  {
    "MOLECULE": "COc1cc(/C=C/C(=O)c2cnn(-c3cc(=O)[nH]c4ccccc34)c2C)cc(OC)c1OC",
    "CATEGORY LABEL": "active"
  }
]

Dear colleague, could you share the recorded outcome for N#C/C(=C/c1ccc([N+](=O)[O-])cc1)c1nnc(NC(=O)c2ccc(-n3c(=O)[nH]c4ccccc4c3=O)cc2)s1 when you have a moment?
inactive
